Source of measurements: paper PMC12164976

Overview of reported pKd across a group of binders:
tgt: T1, chloroplast signal recognition particle 43-kDa protein (cpSRP43), wild type, full length (A. thaliana, UniProt O22265 57-373)
T1 sequence: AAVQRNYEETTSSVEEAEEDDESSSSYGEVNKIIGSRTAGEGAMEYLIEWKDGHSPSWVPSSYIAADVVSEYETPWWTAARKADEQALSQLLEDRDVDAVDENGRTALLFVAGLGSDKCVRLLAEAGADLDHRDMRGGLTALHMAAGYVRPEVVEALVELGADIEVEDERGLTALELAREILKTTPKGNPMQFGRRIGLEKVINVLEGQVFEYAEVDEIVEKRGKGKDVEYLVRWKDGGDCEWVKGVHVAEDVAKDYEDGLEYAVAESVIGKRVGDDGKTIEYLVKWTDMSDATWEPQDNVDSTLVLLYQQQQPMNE
assay_name: fluorescence polarisation
No end group written: not given here.
pKd is defined as minus the log10 of a concentration measured in mol/L.

binder | pKd
QKQKAPPGTARRKRKAC (also: fluorescein label, position not given here) [fluorescein-labeled 54C peptide] | 5.30

For the next question, use this binder.
Query: Recorded pKd for GSFDPLGLADD (also: HiLyte Fluor 488 label, position not given here) [HiLyte Fluor 488-labeled L11 peptide] , please?
Result: 6.15
